tested on: SK-MEL-28; experiment: Antiproliferative activity against human SK-MEL-28 cells assessed as cell growth inhibition incubated for 96 hrs by MTT assay; assay type: functional, cell-based; settings: SK-MEL-28, 96 h
pIC50: −log10 of the molar value.

SMILES_STR: COc1cccc(-c2cc(F)c(Nc3ncccc3C(=O)O)c(F)c2)c1
pIC50: 5.89

SMILES_STR: C/C(O)=C(\C#N)C(=O)Nc1cc(OC(C)C)c(C(=O)Nc2c(F)cccc2Cl)cc1F
pIC50: 6.52

* * *

test: Tmax in Sprague-Dawley rat at 15 mg/kg, po measured after 48 hrs by LC-MS analysis; format: ADME, organism-based; details: in vivo
# Tmax annotations

SMILES_STR: C/C(O)=C(\C#N)C(=O)Nc1cc(O[C@@H](C)C(F)(F)F)c(C(=O)Nc2c(F)cccc2Cl)cc1F
Tmax (h): 12

SMILES_STR: C/C(O)=C(\C#N)C(=O)Nc1cc(O[C@@H](C)C(F)(F)F)c(C(=O)Nc2c(F)cccc2F)cc1F
Tmax (h): 18
